- Tested System: Autotaxin (Homo sapiens)
- Protocol Description: Inhibition of human recombinant ATX at 100 uM after 16 hrs; values are per cent of control
Items are presented alongside their recorded residual activity.
Field format: number, assumed %, no unit text.

These recorded examples may help you get a feel for the data.
Molecule	Tested System	residual activity (%)
CCCCCCCCCCCCCCCC(=O)N[C@H](Cc1ccc(OCCC)cc1)C(=O)CP(=O)(O)O	Autotaxin (Homo sapiens)	75
CCCCCCCCCCCCCCCC(=O)N[C@@H](Cc1ccc(OC)cc1)C(O)CP(=O)(O)O (single isomer, unassigned; diastereomer a)	Autotaxin (Homo sapiens)	36
CCCCCCCC/C=C/CCCCCCCC(=O)N[C@@H](Cc1ccc(OCc2ncc(C)c(OC)c2C)cc1)C(O)CP(=O)(O)O (stereo in doubt; f42)	Autotaxin (Homo sapiens)	58

What does the data say about its residual activity? Entry: CCCCCCCCCCCCCCCC(=O)N[C@H](Cc1ccc(OCCC(C)C)cc1)C(O)CP(=O)(O)O (single isomer, unassigned; diastereomer a)
72

What value of residual activity has been recorded for this entry: CCCCCCCCCCCCCCCC(=O)N[C@@H](Cc1ccc(OC)cc1)C(=O)CP(=O)(O)O
45

Fill in: residual activity of CCCCCCCCCC(=O)N[C@H](Cc1ccc(OCc2ncc(C)c(OC)c2C)cc1)C(O)CP(=O)(O)O (some centres not stated) is ___
30

Dear colleague, I am looking for the recorded residual activity of the following molecule: CCCCCCCCCCCCCCCC(=O)N[C@@H](Cc1ccc(OCCC(C)C)cc1)C(O)CP(=O)(O)O (stereo in doubt; f33)
82
